Below is a list of entries, each paired with its recorded kon value.
target_or_system: T1, Recombinant CSP (Wellcome Trust Sanger Institute, FIG. 22), CSP ectodomain with BirA biotinylation tag, … (Plasmodium falciparum strain 3D7, UniProt Q7K740 19-376, biotinylated at the BirA substrate peptide)
T1 construct: extracellular domain; Expressed in HEK293, 45 kDa; order of the tags is that of the legend, not confirmed; also called biotinylated recombinant CSP
test_name: SPR, IgG1 captured, CSP as analyte, 40 C; apparent affinity (avidity)
# unit: M⁻¹ s⁻¹ | format: bare number

Consider the following illustrative entries.
Antibody 669, human IgG1 (antibody, V domains shown, human IgG1; HEK (Expi293F) product; also called AB-000669; Ab669) VH: QVQLVQSGAEVKKPGASVRVSCKASGFTFTSYAMHWVRQAPGQRLEWMGWINAGNGHTKYSQKFQDRVAITRDTSATTVYMDLSSLRSEDTAVYYCTRDGFCTSTTCSDHYGMDVWGQGTTVTVSS VL: QSALTQPASVSGSPGQSITISCTGTSSDVGSYNYVSWYQQHPGKAPKFMIYDVSKRPSGVSNRFSGSKSGNTASLTISGLQAEDEADYYCCSYAGSSTWVFGGGTKLTVL	265000
Antibody 668, human IgG1 (antibody, V domains shown, human IgG1 with human lambda light chain constant region; HEK293 product; also called AB-000668; Ab668) VH: QVQLVQSGAEVKKPGASVKVSCKASGFTFTDYAMHWVRQAPGQRLEWMGWINAGNGYTKYSQKFQDRLTITRDTFASTVYMELSSLRSEDTTVYYCARDGFCPSNTCSGYYGMDVWGQGTTVTVSS VL: QSALTQPASVSGSPGQSITISCTGTSSDVGSYNYVSWYQQHPGKAPKLMIYDVNTRPSGVSIRFSASKSGNTASLTVSGLQAEDEAVYYCSSYAGSSTWVFGGGTKLTVL	540000
Antibody 667, human IgG1 (antibody, V domains shown, human IgG1 with human lambda light chain constant region; also called AB-000667; Ab667) VH: QVQLVQSGAEVKKPGASVKVSCRASGYTFTNYAMHWVRQAPGQRLEWMGWINAGNGYTKYSQKFQDRVTITRDTSATTAYMELSSLRSEDTAMYYCARDSFYDILSGPVYHYYGMDVWGQGTTVTVSS VL: QSALTQPDSVSGSPGQSITISCTGTSNDVGIYNHVSWYQQHPGKAPKLMIYDVNKRPSGISNRFSGSKSGDTASLTISGLQAEDEADYYCCSYAGSSAWVFGGGTKLTVL	215000

Next binder, kon to be filled in.
Problem: Data request, read-out kon, for Antibody 666, human IgG1 (antibody, V domains shown, human IgG1; also called Ab666) VH: QVQLVQSGAEVKKPGASVKVSCKASGYTFTNYAMHWVRQAPGQRLEWMGWINAGNGNTKYSQNFQGRVTITRDTSASTAYMELSSLRSEDTAVYYCARDEYYASGSYYDYYYYGMDVWGQGTTVTVTS VL: QSALTQPASVSGSPGQSITISCTGTSSDVGVYNYVSWFQQHPGKAPKLMIYNVSKRPSGVSNRFSGSKSGNTASLTISGLQAEDEADYYCCSYAGSSTWVFGGGTNLTVL
Result: 97000

Value source: patent US20180362628A1
